Each record here notes measured selectivity ratio.
experiment: Selectivity index, ratio of CC50 for human MT4 cells to EC50 for HIV-1 NL4-3 infected in MT4 cells; assay type: toxicity, cell-based; conditions: read-out: Ratio CC50/EC50

1) C=C(C)[C@]12C[C@@H](COC(=O)c3ccccc3)[C@@]34OC5(O[C@@H]1[C@@H]3[C@@H]1O[C@]1(CO)[C@@H](O)[C@@]1(O)[C@H]4[C@H]([C@H](C)[C@@H]1OC(=O)c1ccccc1)[C@H](C)C[C@@H](OC(=O)c1ccccc1)CCCC[C@H]5O)O2 ... ≥ 15300

Then this compound:
The measured selectivity ratio associated with C=C(C)[C@@]12OC3(/C=C/C=C/CCCCCCCCCC)O[C@@H]1[C@@H]1[C@@H]4O[C@]4(CO)[C@@H](O)[C@]4(O)C(=O)C(C)=C[C@H]4[C@@]1(O3)[C@H](C)[C@H]2OC(C)=O reads ≥ 392

====

test system: Human immunodeficiency virus 1; assay: Antiviral activity against HIV-1 NL4-3 infected in MT4 cells assessed as viral replication measured on day 4 post infection by ELISA; assay type: functional, organism-based; conditions: Human immunodeficiency virus 1, NL4-3, MT4, 96 h
Parameter: EC50 (µM)
Write the number in µM without appending the unit.

1. C=C(C)[C@]12C[C@@H](COC(=O)c3ccccc3)[C@]34OC5(CCCCCCC[C@H](C)[C@@H]6[C@@H]3[C@]3(O[C@]6(C)OC3=O)[C@H](O)[C@@]3(COC(=O)CCCCCCCCCCCCCCC)O[C@H]3[C@H]4[C@H]1O5)O2 ... 0.59

Switching to the query record.
Recorded EC50 (compound C=C(C)[C@]12C[C@@H](COC(=O)c3ccccc3)[C@]34OC5(CCCCCCC[C@H](C)[C@@H]6[C@@H]3[C@]3(O[C@]6(C)OC3=O)[C@H](O)[C@@]3(COC(=O)CCCCCCC/C=C\C/C=C\CCCCC)O[C@H]3[C@H]4[C@H]1O5)O2 ): 6.71

====

system: MT4; assay: Cytotoxicity against human MT4 cells by cellTiterGlo assay; format: cell-based
Parameter: CC50

1) C=C(C)[C@@]12O[C@@]3(/C=C/C=C/CCCCCCCCC)O[C@@H]1[C@@H]1[C@@H]4O[C@]4(CO)[C@@H](O)[C@]4(O)C(=O)C(C)=C[C@H]4[C@@]1(O3)[C@H](C)[C@H]2OC(C)=O ... ≥ 15.6 µM
2) C=C(C)[C@]12C[C@@H](C)[C@]34O[C@]5(CCCCCCC[C@H](C)[C@@H]6[C@@H]3[C@]3(O[C@]6(C)OC3=O)[C@H](O)[C@@]3(CO)O[C@H]3[C@H]4[C@H]1O5)O2 ... ≥ 18.3 µM

Fill in: MT4 CC50 for Cc1cn([C@H]2C[C@H](N=[N+]=[N-])[C@@H](CO)O2)c(=O)[nH]c1=O = ≥ 3.74 µM

====

system: Human immunodeficiency virus 1; assay: Antiviral activity against HIV-1 NL4-3 infected in MT4 cells assessed as viral replication measured on day 4 post infection by ELISA; type: functional, organism-based; conditions: Human immunodeficiency virus 1, NL4-3, MT4, 96 h
Parameter: pEC50
For clarity, pEC50 is expressed as the negative log10 of concentration in mol/L.

Recorded results for 4 compounds are shown here.
1) C=C(C)[C@]12C[C@@H](COC(=O)c3ccccc3)[C@]34OC5(CCCCCCC[C@H](C)[C@@H]6[C@@H]3[C@]3(O[C@]6(C)OC3=O)[C@H](O)[C@@]3(CO)O[C@H]3[C@H]4[C@H]1O5)O2 ... 6.48
2) C=C(C)[C@]12C[C@@H](COC(=O)c3ccccc3)[C@@]34OC5(O[C@@H]1[C@@H]3[C@@H]1O[C@]1(CO)[C@@H](O)[C@@]1(O)[C@H]4[C@H]([C@H](C)[C@@H]1OC(=O)c1ccccc1)[C@H](C)CCCCCC[C@H]5O)O2 ... 10.22
3) C=C(C)[C@]12C[C@@H](C)[C@@]34OC(/C=C/C=C/CCCCCCCCCC)(O[C@@H]1[C@@H]3[C@@H]1O[C@]1(CO)[C@@H](O)[C@]1(O)C(=O)C(C)=C[C@H]14)O2 ... 7.89
4) C=C(C)[C@]1(O)C[C@@H](C)[C@@]2(O)[C@H]([C@H]1OC(=O)/C=C/C=C/CCCCCCCCC)[C@H](O)[C@@](O)(CO)[C@@H](O)[C@]1(O)C(=O)C(C)=C[C@H]12 ... 7.36

The compound listed as C=C(C)[C@]12C[C@@H](COC(C)=O)[C@@]34OC5(O[C@@H]1[C@@H]3[C@@H]1O[C@]1(CO)[C@@H](O)[C@@]1(O)[C@H]4[C@H]([C@H](C)[C@@H]1OC(=O)c1ccccc1)[C@H](C)C[C@@H](OC(=O)c1ccccc1)CCCC[C@H]5O)O2 shows pEC50 equal to 9.03

====

tested on: MT4; experiment: Cytotoxicity against human MT4 cells by cellTiterGlo assay; type: cell-based
Each entry below carries its reported CC50.

Past entries and their recorded results:
1) C=C(C)[C@]12C[C@@H](C)[C@@]34OC5(CCCCCCC[C@@H](C)[C@H]6[C@H](C)[C@H](OC(=O)c7ccccc7)[C@@](O)([C@H](O)[C@@]7(CO)O[C@H]7[C@H]3[C@H]1O5)[C@@H]64)O2 ... ≥ 15.7 µM
2) C=C(C)[C@]1(O)C[C@@H](C)[C@@]2(O)[C@H]([C@H]1OC(=O)/C=C/C=C/CCCCCCCCC)[C@@H]1O[C@]1(CO)[C@@H](O)[C@]1(O)C(=O)C(C)=C[C@H]12 ... ≥ 16.6 µM
3) C=C(C)[C@]12C[C@@H](COC(=O)c3ccccc3)[C@@]34OC5(O[C@@H]1[C@@H]3[C@@H]1O[C@]1(CO)[C@@H](O)[C@@]1(O)[C@H]4[C@H]([C@H](C)[C@@H]1OC(=O)c1ccccc1)[C@H](C)CCCCCC[C@H]5O)O2 ... ≥ 1.29 µM
4) C=C(C)[C@]12C[C@@H](COC(C)=O)[C@@]34OC5(O[C@@H]1[C@@H]3[C@@H]1O[C@]1(CO)[C@@H](O)[C@@]1(O)[C@H]4[C@H]([C@H](C)[C@@H]1OC(=O)c1ccccc1)[C@H](C)C[C@@H](OC(=O)c1ccccc1)CCCC[C@H]5O)O2 ... ≥ 12 µM
5) C=C(C)[C@@]12OC3(/C=C/C=C/CCCCCCCCCC)O[C@@H]1[C@@H]1[C@@H]4O[C@]4(CO)[C@@H](O)[C@]4(O)C(=O)C(C)=C[C@H]4[C@@]1(O3)[C@H](C)[C@H]2O ... ≥ 16.3 µM

Per the records, this molecule ( C=C(C)[C@]12C[C@@H](C)[C@@]34O[C@](/C=C/C=C/CCCCCCCCC)(O[C@@H]1[C@@H]3[C@@H]1O[C@]1(CO)[C@@H](O)[C@]1(O)C(=O)C(C)=C[C@H]14)O2 ) has CC50 equal to ≥ 14 µM

Given item C=C(C)[C@@]1(O)[C@H](OC(=O)/C=C/C=C/CCCCCCCCC)[C@@H]2[C@@H]3O[C@]3(CO)[C@@H](O)[C@]3(O)C(=O)C(C)=C[C@H]3[C@@]2(O)[C@H](C)[C@H]1OC(C)=O , the value recorded as its CC50 is ≥ 15.2 µM

The recorded CC50 for entry C=C(C)[C@]1(O)C[C@@H](C)[C@@]2(O)[C@H]([C@H]1OC(=O)/C=C/C=C/CCCCCCCCC)[C@H](O)[C@@](O)(CO)[C@@H](O)[C@]1(O)C(=O)C(C)=C[C@H]12 equals ≥ 4.4 µM

// sample C=C(C)[C@]12C[C@@H](COC(=O)c3ccccc3)[C@@]34OC5(CCCCCCC[C@@H](C)[C@H]6[C@H](C)C(=O)[C@@](O)([C@H](O)[C@@]7(CO)O[C@H]7[C@H]3[C@H]1O5)[C@@H]64)O2 , its CC50 was ≥ 15.3 µM

====

test system: Human immunodeficiency virus 1; assay: Antiviral activity against HIV-1 NL4-3 infected in MT4 cells assessed as viral replication measured on day 4 post infection by ELISA; type: functional, organism-based; details: Human immunodeficiency virus 1, NL4-3, MT4, 96 h
Parameter: pEC50
Quick note: pEC50 values are minus log10 of concentrations in mol/L.

Known pEC50 results, listed for orientation:
1. C=C(C)[C@]1(O)C[C@@H](C)[C@@]2(O)[C@H]([C@H]1OC(=O)/C=C/C=C/CCCCCCCCC)[C@@H]1O[C@]1(CO)[C@@H](O)[C@]1(O)C(=O)C(C)=C[C@H]12 ... 7.23
2. C=C(C)[C@@]12O[C@@]3(/C=C/C=C/CCCCCCCCC)O[C@@H]1[C@@H]1[C@@H]4O[C@]4(CO)[C@@H](O)[C@]4(O)C(=O)C(C)=C[C@H]4[C@@]1(O3)[C@H](C)[C@H]2OC(C)=O ... 7.92

pEC50 in this record for C=C(C)[C@]12C[C@@H](C)[C@@]34O[C@](CCCCCCCCC)(O[C@@H]1[C@@H]3[C@@H]1O[C@]1(CO)[C@@H](O)[C@]1(O)C(=O)C(C)=C[C@H]14)O2 : 7.33

// C=C(C)[C@]12C[C@@H](C)[C@@]34OC5(CCCCCCC[C@@H](C)[C@H]6[C@H](C)[C@H](OC(=O)c7ccccc7)[C@@](O)([C@H](O)[C@@]7(CO)O[C@H]7[C@H]3[C@H]1O5)[C@@H]64)O2 : pEC50 value = 8.96
